Record form. Attribute: TGI. Fill in for each entry.
- Tested on: A549 NSCLC
- experiment: NCI tumour cell line growth inhibition, 48 h

As a guide, the following entries are already answered.
CC1C2CC(C/C2=N/O)C1(C)C (configuration not stated)	> 100 µM
O/N=C1/C2CC3CC1(c1ccccc1)CC(/C3=N/O)/C2=N\O (configuration not stated)	> 100 µM
O=C(COc1ccc(Cl)cc1)N1CCN(C(=O)COc2ccc(Cl)cc2)c2ccccc21	> 100 µM
Cc1ccc(Sc2oc(-c3ccc(C)cc3)nc2[P+](c2ccccc2)(c2ccccc2)c2ccccc2)cc1	1.24 µM
COc1cc(OC)c2c(O)c(S(=O)(=O)c3ccc(C)cc3)c(=O)oc2c1	> 100 µM
CC(NNC(=O)c1ccncc1)c1ccc(Cl)c(Cl)c1 (configuration not stated)	> 100 µM
OCc1ccc(N2CCCC2)cc1Cl	> 100 µM
CCN(C(=O)CN1CCN(c2cc3c(cc2F)c(=O)c(C(=O)O)cn3CC)CC1)c1nc(-c2ccccc2)cs1	> 100 µM
CCCCCCCCCCCCCP(=O)(NCC(N)=O)OCC (configuration not stated)	40.7 µM
CC1=C[C@@H](C)C[C@]2(C)CC[C@H](O2)[C@]23CC[C@](C)(C[C@H](O2)[C@@H]2O[C@@](C)(CC2=O)[C@@H](O)[C@H]2CC[C@@]4(CCC[C@@H](O4)[C@H](C)C(=O)O[C@H]4C[C@H]([C@]5(O)OCC[C@H](C)[C@@H]5O)O[C@H]4C=C1)O2)O3	> 10 µM

Please look at the items below and tell me TGI for each one, in order.
1. Oc1ccc(Cl)cc1C1=N/C(=N\C/N=C2\N=C(c3cc(Cl)ccc3O)CC(c3ccccc3)N2)NC(c2ccccc2)C1 (configuration not stated)
2. O=C(N/C(=C\c1cc(Cl)ccc1Cl)c1nc2ccc(Cl)cc2[nH]1)c1ccccc1
3. COC1=CC(=O)c2c(O)c3c(c(O)c2C1=O)C[C@](C)(O)C[C@@H]3O
4. Nc1ncnc2c1nnn2C1C=C(CO)C(O)C1O (configuration not stated)
5. Cc1c(C#N)c2nnn(-c3ccccc3)c(=O)n2c1-c1ccccc1

1: > 100 µM; 2: 38.1 µM; 3: 9.81 µM; 4: > 100 µM; 5: > 45.8 µM

Please look at the items below and tell me TGI for each one, in order.
1. Cc1cc(O)ccc1C1(c2ccc(F)cc2)OC(=O)c2ccccc21 (configuration not stated)
2. Nc1ccc(-c2nc3ccc(F)cc3s2)cc1
3. O=C1CCC(N2C(=O)c3cccc(NCCCC4CCN(CCNC(=O)c5cc6c(o5)C(=O)c5ccccc5C6=O)CC4)c3C2=O)C(=O)N1 (configuration not stated)
4. CN1CCc2c1nc(-c1cccnc1)c1c2N(C)CC1
5. O=c1cccc(C#CC#CCCCO)o1
6. NC(=O)C12CC3CC(CC(Br)(C3)C1)C2

1. 18.3 µM
2. > 100 µM
3. 0.471 µM
4. > 100 µM
5. > 58.8 µM
6. > 100 µM

----------
Record form. Attribute: TGI. Fill in for each entry.
- Test system: MDA-MB-231 breast
- experiment: NCI tumour cell line growth inhibition, 48 h
One number for each entry, in µM.

As a guide, the following entries are already answered.
OC(CCN1CCN(CCOC(c2ccccc2)c2ccccc2)CC1)c1ccc(Br)cc1 (stereo not given)	25.3
C=CC(C)(C)c1cc([C@@H]2COc3cc(O)ccc3C2=O)c(O)c(O)c1OC	57.5
COc1ccc2c(c1)C(=O)c1c-2n(CCCN)c(=O)c2cc([N+](=O)[O-])ccc12	0.227
COc1ccc2c(-c3ccc(OCCN(C)C)cc3)c(Oc3ccc(Cl)cc3)c(=O)oc2c1	33.5
COc1cccc(C2C(C#N)=C(N)Oc3c2ccc2ccccc32)c1 (stereo not given)	16.3

Let us examine a further case.
Reported TGI, molecule `COc1ccc2c(c1)C(=O)c1c-2c(N2CCNCC2)nc2ccccc12` : ____
11.1

----------
- System: SK-MEL-28 melanoma
- experiment: NCI tumour cell line growth inhibition, 48 h; in the data active means GI50 below about 0.43 µM; inactive means the rest
Pick from active, inactive when you respond.

Examples from the recorded data:
COc1ccc(-c2ccc(/C=N/n3c(COc4ccccc4Cl)n[nH]c3=S)o2)c([N+](=O)[O-])c1	inactive
Cc1cc(NC(=O)c2cnc(N3CCN(CCOCCOCCOCCOCCC(=O)N[C@H](C(=O)N4C[C@H](O)C[C@H]4C(=O)N[C@@H](C)c4ccc(-c5scnc5C)cc4)C(C)(C)C)CC3)cn2)c2ncccc2c1	inactive
CC1=C(C(=O)Nc2ccc(F)c(Cl)c2)C(c2ccccc2O)NC(=O)N1 (stereo not drawn)	inactive
C=C1CC[C@@H]2[C@](C)(COC(C)=O)[C@H](OC(C)=O)CC[C@@]2(C)[C@@H]1CC(Nc1ccc(S(=O)(=O)Nc2nccs2)cc1)C1=CCOC1=O (stereo partly drawn)	inactive

Recorded test call requested for O=C1CCC(N2C(=O)c3cccc(NCCCC4CCN(CCNC(=O)c5cc6c(o5)C(=O)c5ccccc5C6=O)CC4)c3C2=O)C(=O)N1 (stereo not drawn)
inactive

Recorded test call requested for O=C(NN1C(=O)CSC1c1ccc(F)cc1)C(O)c1ccccc1 (stereo not drawn)
inactive

Recorded test call requested for `O=S(=O)(NC1=NCCN1C(=S)SN1CCn2c1nsc2=S)c1cccc(OC(F)(F)F)c1`
inactive

----------
- Tested on: T-47D breast
- experiment: NCI tumour cell line growth inhibition, 48 h
Record form. Attribute: TGI. Fill in for each entry.

Cc1ccc(SC[C@@]2(C(F)F)NC(=O)NC2=O)cc1	> 100 µM

Please look at the items below and tell me TGI for each one, in order.
1. CCOC1OC(=O)[C@H]2[C@@H]1[C@@H]1CC[C@H]2O1 (stereo partly drawn)
2. NS(=O)(=O)c1cccc(-c2ccc3c(NC(=O)C4CC4)n[nH]c3c2)c1
3. OCc1ccc(N2CCCC2)cc1Cl
4. C/C=C/[C@H]1O[C@@](O)([C@@H](C)[C@H](O)[C@H](C)[C@H]2OC(=O)/C(OC)=C/C(C)=C/[C@@H](C)[C@@H](O)[C@@H](CC)[C@@H](O)[C@H](C)C/C(C)=C/C=C/[C@@H]2OC)C[C@H](OC2CC(O)C(OC(N)=O)C(C)O2)[C@@H]1C (stereo partly drawn)

["> 100 µM", "> 25 µM", "2.88 µM", "2.12 µM"]

Please look at the items below and tell me TGI for each one, in order.
1. CN(C)C(=O)C(F)(F)C(c1ccc(Br)cc1)C1C(=O)N(C)C(=O)N(C)C1=O (stereo not drawn)
2. COc1cc2c(c(OC)c1OC)-c1c(cc3c(c1OC)OCO3)CC(C)C(C)(O)C2OC(=O)c1ccccc1 (stereo not drawn)
3. O/N=C1/C2CC3CC1(c1ccccc1)CC(/C3=N/O)/C2=N\O (stereo not drawn)

["> 100 µM", "> 100 µM", "> 100 µM"]

Please look at the items below and tell me TGI for each one, in order.
1. S=C(N/N=C\c1ccccn1)N(Cc1ccccn1)Cc1ccccn1
2. CC1C2CC(C/C2=N/O)C1(C)C (stereo not drawn)
3. COc1cc(/C=C/[N+](=O)[O-])cc(OC)c1OC
4. COc1cc(/C=N\NC(=O)C[N+](C)(C)C)cc(OC)c1OC
5. O=C(NN1C(=O)CSC1c1ccc(F)cc1)C(O)c1ccccc1 (stereo not drawn)
6. O=[N+]([O-])c1ccc2c(Nc3ccccc3-c3ccccc3Nc3c4ccccc4nc4cc([N+](=O)[O-])ccc34)c3ccccc3nc2c1

> 40.4 µM
> 100 µM
9.6 µM
> 10 µM
> 100 µM
20.3 µM

Please look at the items below and tell me TGI for each one, in order.
1. Cc1ccnc(NC(=S)Nc2cccc(Cl)c2)c1
2. CN1CCN(c2cc3nc4ccccc4n(-c4ccc(Cl)cc4)c-3cc2=N)CC1
3. CC(NNC(=O)c1ccncc1)c1ccc(Cl)c(Cl)c1 (stereo not drawn)
4. CC1=C[C@@H](C)C[C@]2(C)CC[C@H](O2)[C@]23CC[C@](C)(C[C@H](O2)[C@@H]2O[C@@](C)(CC2=O)[C@@H](O)[C@H]2CC[C@@]4(CCC[C@@H](O4)[C@H](C)C(=O)O[C@H]4C[C@H]([C@]5(O)OCC[C@H](C)[C@@H]5O)O[C@H]4C=C1)O2)O3

1: > 100 µM; 2: > 100 µM; 3: > 100 µM; 4: > 10 µM

----------
- System: OVCAR-4 ovarian
- experiment: NCI tumour cell line growth inhibition, 48 h
Record form. Attribute: TGI. Fill in for each entry.

Please look at the items below and tell me TGI for each one, in order.
1. CC(=O)CC(C)(C)NC(=O)[C@@]1(O)CC[C@H]2[C@@H]3CCC4=CC(=O)CC[C@@H]4[C@H]3CC[C@@]21C
2. CCN(CC)CCCC(C)Nc1c(-c2ccccc2)cnc2cc(Cl)ccc12 (stereo not drawn)

["> 100 µM", "36.4 µM"]
